Tested on: SARS-CoV-2
Assay explanation: SARS-CoV-2 immunofluorescence assay (IFA), N protein expression in Vero E6 cells
Format: cell-based
Condition context: Severe acute respiratory syndrome coronavirus 2, Vero C1008; IFA; range over Compounds 1, 2 and 3; read-out: EC50 against SARS-CoV-2 (range given)
pEC50: −log10 of the molar value.
Metric: pEC50

Enquiry: // query pEC50 value for entry COc1cc2c3c(c4cc(OC)c(OC)cc4c2cc1OC)CN1CCC[C@H]1C3
Return: 7.11 to 8.05

Enquiry: // query pEC50 value for entry CCN1Cc2c(c3ccc(OC)cc3c3cc(OC)c(OC)cc23)C(O)C1 (stereo not drawn)
Return: 7.11 to 8.05

Enquiry: // query pEC50 value for entry CCN1Cc2c(c3ccc(OC)cc3c3cc(OC)c(OC)cc23)C(O)C1C (stereo not drawn)
Return: 7.11 to 8.05

* * *

Tested on: Vero E6 cells
Assay explanation: Vero E6 cell viability by MTS (Zika study)
Type: cell-based
Metric: CC50

Enquiry: // query CC50 value for entry CCN1Cc2c(c3cc(OC)c(OC)cc3c3cc(OC)c(OC)cc23)C(O)C1 (single isomer, unassigned)
Return: > 5 µM

* * *

Tested on: Vero E6 cells
Assay explanation: Vero E6 cell viability by MTS (Dengue study)
Format: cell-based
Metric: CC50

Enquiry: // query CC50 value for entry CCN1Cc2c(c3cc(OC)c(OC)cc3c3cc(OC)c(OC)cc23)C(O)C1 (single isomer, unassigned) [Compound 9]
Return: > 5 µM

* * *

Tested on: Zika virus
Assay explanation: Zika virus IFA assay (E protein) in Vero E6 cells
Assay type: cell-based
Condition context: Zika virus, Vero C1008, 49 h, read-out: EC50 (Zika virus)
Metric: EC50 (nM)
Numbers only; they are read as nM.

Enquiry: // query EC50 value for entry COc1cc2c3c(c4cc(OC)c(OC)cc4c2cc1OC)CN1CCC[C@H]1C3 [Compound 1]
Return: 61.4

Values were extracted from patent US20240033256A1.
